FYI, the data here is from patent US20230365537A1.

Molecular target: human recombinant Aurora A (Homo sapiens (Human))
Sequence (O14965 whole entry): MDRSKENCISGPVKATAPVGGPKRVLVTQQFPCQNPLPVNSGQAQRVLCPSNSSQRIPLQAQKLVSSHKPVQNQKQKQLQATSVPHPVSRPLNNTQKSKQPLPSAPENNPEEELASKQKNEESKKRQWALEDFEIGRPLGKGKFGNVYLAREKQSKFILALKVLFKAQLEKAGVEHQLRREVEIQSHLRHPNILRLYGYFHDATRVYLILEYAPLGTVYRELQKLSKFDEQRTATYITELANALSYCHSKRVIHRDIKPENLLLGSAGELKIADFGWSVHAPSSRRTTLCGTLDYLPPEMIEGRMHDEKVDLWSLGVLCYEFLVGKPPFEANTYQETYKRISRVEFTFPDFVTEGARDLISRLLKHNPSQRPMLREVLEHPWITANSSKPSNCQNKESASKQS
Experiment: Aurora A Kinase Biochemical Assay (ADP-Glo)
Details: ratio of Aurora A IC50 to PLK4 IC50 (selectivity)
Please provide measured [Aurora A IC50 (nM)]/[PLK4 IC50 (nM)] for the entries that follow.
Numbers only.

Below, 5 molecules whose answers are already recorded.
Query smiles | [Aurora A IC50 (nM)]/[PLK4 IC50 (nM)]
COc1ccc2c(c1)[C@]1(C[C@H]1c1ccc3c(Nc4nc(N5CCOCC5)ncc4Cl)n[nH]c3c1)C(=O)N2 | 416.6667
COc1ccc2c(c1)[C@]1(C[C@H]1c1ccc3c(Nc4cnn5c4OCC5)n[nH]c3c1)C(=O)N2 | 36.2
COc1ccc2c(c1)[C@]1(C[C@H]1c1ccc3c(Nc4ncc(C(=O)N(C)C)cc4OC)n[nH]c3c1)C(=O)N2 | 1243.4944
COc1ccc2c(c1)[C@]1(C[C@H]1c1ccc3c(Nc4nc(C(C)C)ncc4OC(F)F)n[nH]c3c1)C(=O)N2 | 2750.2597
COc1cnc(C)nc1Nc1n[nH]c2cc([C@@H]3C[C@@]34C(=O)Nc3ccc(C)cc34)ccc12 | 66.2192

Each molecule below has a recorded value; state its [Aurora A IC50 (nM)]/[PLK4 IC50 (nM)].
1. CCS(=O)(=O)c1cnc(Nc2n[nH]c3cc([C@@H]4C[C@@]45C(=O)Nc4ccc(OC)cc45)ccc23)c(OC)c1
2. COc1ccc2c(c1)[C@]1(C[C@H]1c1ccc3c(Nc4ccc(C(=O)N(C)C)nc4Cl)n[nH]c3c1)C(=O)N2
3. CCP(=O)(CC)c1ccc(Nc2n[nH]c3cc([C@@H]4C[C@@]45C(=O)Nc4ccc(OC)cc45)ccc23)c(OC)n1
4. COc1ccc2c(c1)[C@]1(C[C@H]1c1ccc3c(Nc4nc(N5CCOCC5)cnc4OC)n[nH]c3c1)C(=O)N2

Given back:
[813.6599, 1734.2342, 1259.8465, 155.05]

Each molecule below has a recorded value; state its [Aurora A IC50 (nM)]/[PLK4 IC50 (nM)].
1. COc1cnc(C)nc1Nc1n[nH]c2cc([C@@H]3C[C@@]34C(=O)Nc3cc(F)ccc34)ccc12
2. COc1ccc2c(c1)[C@]1(C[C@H]1c1ccc3c(Nc4nc(C5CC5)nc(N5C[C@@H](C)O[C@@H](C)C5)c4OC)n[nH]c3c1)C(=O)N2
3. COc1ccc2c(c1)[C@]1(C[C@H]1c1ccc3c(Nc4nc(C)ncc4OCC(F)(F)F)n[nH]c3c1)C(=O)N2
4. CCc1ncc(OC)c(Nc2n[nH]c3cc([C@@H]4C[C@@]45C(=O)Nc4ccc(OC)cc45)ccc23)n1
5. COc1ccc2c(c1)[C@]1(C[C@H]1c1ccc3c(Nc4cn(C)nc4C#N)n[nH]c3c1)C(=O)N2

Given back:
[105.7084, 6738.759, 3193.7837, 545.5487, 21.37]
